- Tested on: biotinyl-Trp-oxazolone
- test name: self-aminoacylation, catalytic enhancement (BWO) (fold over background); higher = more active; k-Seq, kA / k0A0; sequences stand for … in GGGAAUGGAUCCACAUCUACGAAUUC…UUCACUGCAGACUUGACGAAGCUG
This sample holds only a part of the variants without activity.
Output label 1 for self-aminoacylation not less than 3; output label 0 otherwise.

# count of solved cases: 5
## Input # bool: self-aminoacylation of CGACACUUCAAUCAAUCGGUC [Fam1B.1 aminoacylation ribozyme variant] >= 3
## Output label 1

## Input // next record CUUCACCUAGGUCUUCGGGUG [Fam2.2 aminoacylation ribozyme variant]
## Output label 1

## Input Next: AUUACCCCGGUCAUGGAGUGA [Fam2.1 aminoacylation ribozyme variant]
## Output label 1

## Input Param item: ACUCACCUAGGUCAUUGGGUG [Fam2.2 aminoacylation ribozyme variant]
## Output label 1

## Input Try this sequence too: AUUACCCUGGUCAUCGUGCGA [Fam2.1 aminoacylation ribozyme variant]
## Output label 0

Others:
## Input Check this sequence for self-aminoacylation at or above 3: AUUCACCUAUGUCAUUGGGUG [Fam2.2 aminoacylation ribozyme variant]
## Output label 0

## Input Record: AUUCCUCUGGUCAUCGAGUGA [Fam2.1 aminoacylation ribozyme variant]
## Output label 1

## Input // same read-out, input: AUACACCUAGGUCAUCGGGUA [Fam2.2 aminoacylation ribozyme variant]
## Output label 1

###

What self-aminoacylation was measured for each of the following?
- Test system: biotinyl-Leu-oxazolone
- test name: self-aminoacylation, catalytic enhancement (BLO) (fold over background); higher = more active; k-Seq, kA / k0A0; sequences stand for … in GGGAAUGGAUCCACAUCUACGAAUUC…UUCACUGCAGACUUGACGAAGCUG
Variants at the floor of the assay were thinned out.
Numbers only.

Example sequences with recorded self-aminoacylation:
## Input Which self-aminoacylation is reported with biotinyl-Leu-oxazolone for this entry: AUUAACCUGGUCAUCGAGUGC [Fam2.1 aminoacylation ribozyme variant] ?
## Output 1.18

## Input Same lookup for AAUCACCUAGGUCAUCCGGUG [Fam2.2 aminoacylation ribozyme variant] , please.
## Output 6.61

## Input Next sequence up: CUACUUCAAGCAAUCGGUCAG [Fam1A.1 aminoacylation ribozyme variant]
## Output 0.797

## Input Also, AUUAACCUGGUCAUCUAGUGA [Fam2.1 aminoacylation ribozyme variant] please.
## Output 9.7

## Input Same lookup for AUGCACCUAGUUCAUCGGGUG [Fam2.2 aminoacylation ribozyme variant] , please.
## Output 3.07

State the recorded self-aminoacylation for every item in the following list.
1. AUGCACGUAGGUCAUCGGGUG [Fam2.2 aminoacylation ribozyme variant]
2. AUUACCCGGGUCAUCGAGUGA [Fam2.1 aminoacylation ribozyme variant]
3. CCUUACUUCAAGCAAUCGGUC [Fam1B.1 aminoacylation ribozyme variant]
4. CUCCUUCAAACAAUCCGUCUG [Fam1A.1 aminoacylation ribozyme variant]
5. AUUACCGUGGUCAUCAAGUGA [Fam2.1 aminoacylation ribozyme variant]
6. UAGUUUGCUUAUAGUCGCAAG [Fam3.1 aminoacylation ribozyme variant]
7. CUACUGCAGACAAUCGGUCUG [Fam1A.1 aminoacylation ribozyme variant]

## Output
[4.72, 7.1, 1.3, 0.659, 3.05, 1.59, 1.07]

Each recorded value in this set is attributed to the supplement of paper PMC9233669.
